test system: TK-10 renal; experiment: NCI-60 one-dose screen, 48 h (100 = growth as untreated, 0 = no growth, -100 = all killed); details: 10 µM unless noted
The panel holds about 83,000 compounds, 20% with a hit somewhere; the sample as a whole holds those more often.
Give growth for every item shown.
Output spec: scalar in %, unitless text.

Prompt: What value of measured growth is listed for "O=C(Nc1ccccc1)Nc1cccc(Oc2nnc(Cl)c3ccccc23)c1" ?
Completion: 25.3

Prompt: So what's the measured growth for this one? "COc1ccccc1NC(=O)N/C(N)=N/c1nc2ccccc2s1"
Completion: 59.3

Prompt: // returns reported growth for input "N/C(=N\c1nc2ccccc2s1)NC(=O)Nc1cccc(Cl)c1"
Completion: 69.2

Prompt: Given "N#Cc1c(N)nc(NCCO)nc1-c1ccc(F)cc1" , state its recorded growth.
Completion: 106

Prompt: State the recorded growth for this entry: "COc1cccc(/C=C/C(=O)c2c(C)nc3ccccc3c2/C=C/c2ccc(C)cc2)c1OC"
Completion: 118

Prompt: Value lookup for growth; key = "Cc1ccc(N(C(=O)CCc2c[nH]c3ccccc23)[C@H](C(=O)Nc2ccc(Cl)cc2)c2cccc([N+](=O)[O-])c2)cc1"
Completion: 116

Prompt: Recorded growth for "Cc1c2c(c(C)c3c1oc1cc(O)ccc13)C(=O)N(CCN1CCCCC1)C2=O" , please?
Completion: 96.7

* * *

system: SNB-19 CNS; experiment: NCI-60 one-dose screen, 48 h (100 = growth as untreated, 0 = no growth, -100 = all killed); conditions: 10 µM unless noted
The panel holds about 83,000 compounds, 20% with a hit somewhere; the sample as a whole holds those more often.
test.readout: growth (%)
Numeric only. Scale: %

Prompt: For SNB-19 CNS, provide growth of "c1coc(-c2c3ccc(=[N+]4CCCCC4)cc-3oc3cc(N4CCCCC4)ccc23)c1" please.
Completion: -93.2

Prompt: Reported growth for SNB-19 CNS, given "COc1ccc(-c2nc(SCCC(C)C)nc(N/N=C\c3cccc([N+](=O)[O-])c3)c2C#N)cc1" ?
Completion: 45.1

Prompt: Hi! What's the reported growth for "CCOC(=O)c1c(-c2ccc(Cl)cc2)c(C#N)c(=O)n(-c2ccccc2CC)c1N" on SNB-19 CNS?
Completion: 120

Prompt: Quick check: growth on SNB-19 CNS, item COc1cc(OC)cc(C2CC(=O)Nc3c2c(C)nn3-c2nc3ccccc3[nH]2)c1 (configuration not stated) ?
Completion: 21.9

Prompt: Provide value of growth for this record tested with SNB-19 CNS: "CCOC(=O)c1ccc(N2NC(=O)/C(=C/c3ccc([N+](=O)[O-])o3)C2=O)cc1"
Completion: 115

Prompt: Identify the measured growth of "COc1cc(Cn2ncc3ccc(NC(=O)c4cc5ccccc5oc4=N)cc32)cc(OC)c1OC" for SNB-19 CNS.
Completion: 70.9

Prompt: For the record "O=C(Nc1ccccc1Cl)Oc1ccc(-c2ccccc2)cc1" , what value of growth is listed for SNB-19 CNS?
Completion: 98.4

Prompt: Request - read-out growth | tested on SNB-19 CNS | compound COCN1CCC2N(COC)CCC3N(COC)CCC1N23 (configuration not stated)
Completion: 93.6

Prompt: Form: Entry = "COc1ccc(/C=C/c2c(C(=O)/C=C/c3ccc(F)cc3)c(C)nc3ccccc23)cc1" | System = SNB-19 CNS | growth = ____
Completion: 60.9

Prompt: Recall the recorded growth for "CCN(CC)CCn1nc2c3c(cccc3c1=O)-c1ccccc1-2" with SNB-19 CNS and state it.
Completion: 26

Prompt: Lab note: need growth with SNB-19 CNS for entry "C[C@H]1[C@H]2[C@H]3CC[C@@H]4[C@@]5(C)C/C(=C/c6ccco6)C(=O)C(C)(C)[C@@H]5CC[C@@]4(C)[C@]3(C)CC[C@]23CO[C@]1(C)[C@@H](C(=O)/C=C\c1ccco1)C3" , please look it up.
Completion: 91.8

Prompt: // fetch SNB-19 CNS growth for CCCCC1CCCCN1C(=O)OCC (configuration not stated)
Completion: 106

Values were extracted from PubChem BioAssay (NCI).
